Numbers sourced from patent US20250002574A1.

# Assayed target: T1, IL-11 (UniProt P20809 22-199, limits assumed)
# T1 construct: also called IL-11 protein; IL-11 antigen
# T1 sequence (looked up): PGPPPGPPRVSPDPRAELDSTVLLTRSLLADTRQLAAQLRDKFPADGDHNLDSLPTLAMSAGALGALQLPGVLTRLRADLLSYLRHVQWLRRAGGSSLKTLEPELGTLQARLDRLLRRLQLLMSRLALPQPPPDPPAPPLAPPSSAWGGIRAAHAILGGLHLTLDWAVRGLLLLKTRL
# Assay summary: SPR Biacore, scFv captured, IL-11 400 nM
Quick rule for you: Kd under 20 nM gets condition met, anything else gets condition not met.

The following binders have reported results that may help.
[
  {
    "Binder": "“VH4+VL4”-scFv (scFv) scFv: QVQLVQSGAEVKKPGASVKVSCKASDYTFTNYWLGWVRQAPGHGLEWIGHIYPGGGYTNYNEKFKGRATLTADTSTSTVYMELSSLRSEDTAVYFCARVRSGNDALDFWGQGTLVTVSSGGGGSGGGGSGGGGSEIVLTQSPATLSLSPGERATLSCRASESVDEYGISFMNWFQQKPGQAPRLLIYSASNQGSGIPARFSGSGSGTDFTLTISSLEPEDFAMYFCQQSKEVPWTFGGGTKLEIK",
    "Answer label": "condition met"
  },
  {
    "Binder": "“VH1+VL1”-scFv (scFv, CHO expression supernatant) scFv: QVQLVQSGAEVKKPGASVKVSCKASDYTFTNYWLGWVRQAPGQGLEWMGHIYPGGGYTNYNEKFKGRVTMTRDTSTSTVYMELSSLRSEDTAVYYCARVRSGNDALDFWGQGTLVTVSSGGGGSGGGGSGGGGSEIVLTQSPATLSLSPGERATLSCRASESVDEYGISFMNWYQQKPGQAPRLLIYSASNQGSGIPARFSGSGSGTDFTLTISSLEPEDFAVYYCQQSKEVPWTFGGGTKLEIK",
    "Answer label": "condition not met"
  },
  {
    "Binder": "“VH2+VL1”-scFv (scFv) scFv: QVQLVQSGAEVKKPGASVKVSCKASDYTFTNYWLGWVRQAPGQGLEWIGHIYPGGGYTNYNEKFKGRVTMTADTSTSTVYMELSSLRSEDTAVYFCARVRSGNDALDFWGQGTLVTVSSGGGGSGGGGSGGGGSEIVLTQSPATLSLSPGERATLSCRASESVDEYGISFMNWYQQKPGQAPRLLIYSASNQGSGIPARFSGSGSGTDFTLTISSLEPEDFAVYYCQQSKEVPWTFGGGTKLEIK",
    "Answer label": "condition met"
  }
]

Bench note: check whether “VH4+VL1”-scFv (scFv) scFv: QVQLVQSGAEVKKPGASVKVSCKASDYTFTNYWLGWVRQAPGHGLEWIGHIYPGGGYTNYNEKFKGRATLTADTSTSTVYMELSSLRSEDTAVYFCARVRSGNDALDFWGQGTLVTVSSGGGGSGGGGSGGGGSEIVLTQSPATLSLSPGERATLSCRASESVDEYGISFMNWYQQKPGQAPRLLIYSASNQGSGIPARFSGSGSGTDFTLTISSLEPEDFAVYYCQQSKEVPWTFGGGTKLEIK shows Kd below 20 nM condition met

Below 20 nM on Kd? Entry “VH3+VL4”-scFv (scFv) scFv: QVQLVQSGAEVKKPGASVKVSCKASDYTFTNYWLGWVRQAPGQGLEWIGHIYPGGGYTNYNEKFKGRATLTADTSTSTVYMELSSLRSEDTAVYFCARVRSGNDALDFWGQGTLVTVSSGGGGSGGGGSGGGGSEIVLTQSPATLSLSPGERATLSCRASESVDEYGISFMNWFQQKPGQAPRLLIYSASNQGSGIPARFSGSGSGTDFTLTISSLEPEDFAMYFCQQSKEVPWTFGGGTKLEIK condition met
